# polymerase ribozyme fitness (log ratio) values compiled below
B1: TPR t1 (parent)
chain: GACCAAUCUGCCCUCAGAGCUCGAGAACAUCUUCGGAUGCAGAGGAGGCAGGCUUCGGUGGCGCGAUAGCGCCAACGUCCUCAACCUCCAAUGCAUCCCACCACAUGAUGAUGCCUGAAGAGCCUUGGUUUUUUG

# Variants of: B1
# PROTOCOL DESCRIPTION: polymerase ribozyme fitness, log enrichment relative to wild type (log ratio); higher = more active; in vitro selection for triplet polymerase activity
Returns: the value as a bare number; no unit string appended.

Would you please look over these solved cases?
mutation="G60C C72U" endpoint_name="polymerase ribozyme fitness (log ratio)" meas_value=-0.882
mutation="G19U C123A" endpoint_name="polymerase ribozyme fitness (log ratio)" meas_value=-2.59

Inquiry: Reported polymerase ribozyme fitness (log ratio), variant G120U G135C : ____
Reply text: 1.16

Inquiry: # polymerase ribozyme fitness (log ratio) lookup, item C11A U14G G63A G71A A83G A91C C114U
Reply text: -5.74
